Assign log10 of koff to each entry below.
# assay_target: Human BCMA (human) (UniProt Q02223)
# test_description: SPR, IgG on chip, huBCMA analyte
A value of 2 here means koff of 100 in s⁻¹, since values are log10.

[in] What log10 of koff value was documented for this binder, COMBO_Rd4_0.6nM_C09 (antibody, V domains shown, IgG) VH: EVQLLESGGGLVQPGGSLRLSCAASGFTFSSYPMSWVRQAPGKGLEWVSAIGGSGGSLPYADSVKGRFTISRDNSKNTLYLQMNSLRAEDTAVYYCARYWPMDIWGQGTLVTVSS VL: EIVLTQSPGTLSLSPGERATLSCRASQSVSSTYLAWYQQKPGQAPRLLMYDASIRATGIPDRFSGSGSGTDFTLTISRLEPEDFAVYYCQQYQEWPLTFGQGTKVEIK ?
[out] -3.50

[in] Please give the result for A02_Rd4_0.6nM_C13 (antibody, V domains shown, IgG) VH: EVQLLESGGGLVQPGGSLRLSCAASGFTFSSYAMNWVRQAPGKGLEWVSAISDSGGYRYYADSVKGRFTISRDNSKNTLYLQMNSLRAEDTAVYYCARYWPMSLWGQGTLVTVSS VL: EIVLTQSPGTLSLSPGERATLSCRASQSVSSSYWAWYQQKPGQAPRLLMYDASIRATGIPDRFSGSGSGTDFTLTISRLEPEDFAVYYCQQYESWPLTFGQGTKVEIK too.
[out] -3.25

[in] Please give the result for C01_Rd4_0.6nM_C16 (antibody, V domains shown, IgG) VH: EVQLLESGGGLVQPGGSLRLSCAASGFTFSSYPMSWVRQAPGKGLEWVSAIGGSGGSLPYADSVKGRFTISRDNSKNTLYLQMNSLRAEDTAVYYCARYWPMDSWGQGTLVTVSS VL: EIVLTQSPGTLSLSPGERATLSCRASQSVSSTYLAWYQQKPGQAPRLLIYDASSRAPGIPDRFSGSGSGTDFTLTISRLEPEDFAVYYCQQYSSWPLTFGQGTKVEIK too.
[out] -2.20

[in] Please give the result for COMBO_Rd4_0.6nM_C20 (antibody, V domains shown, IgG) VH: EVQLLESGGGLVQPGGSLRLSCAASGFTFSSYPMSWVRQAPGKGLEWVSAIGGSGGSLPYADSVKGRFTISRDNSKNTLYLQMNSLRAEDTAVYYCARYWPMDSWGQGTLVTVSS VL: EIVLTQSPGTLSLSPGERATLSCRASQSVSYLYLAWYQQKPGQAPRLLMYDASIRATGIPDRFSGSGSGTDFTLTISRLEPEDFAVYYCQQYMEWPLTFGQGTKVEIK too.
[out] -3.84

[in] Please give the result for C01_Rd4_6nM_C20 (antibody, V domains shown, IgG) VH: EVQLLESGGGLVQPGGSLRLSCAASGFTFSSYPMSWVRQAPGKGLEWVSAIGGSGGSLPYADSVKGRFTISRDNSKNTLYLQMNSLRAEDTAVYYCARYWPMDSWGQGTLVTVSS VL: EIVLTQSPGTLSLSPGERATLSCRASQSVSPLYLAWYQQKPGQAPRLLIYDASSRAPGIPDRFSGSGSGTDFTLTISRLEPEDFAVYYCQQYSAFPLTFGQGTKVEIK too.
[out] -2.56
